Please provide measured GI50 for the entries that follow.
Test system: SN12K1
test description: cells
Assay type: functional
condition: Homo sapiens
Calls of active or inactive are those of the source.

Use these answered entries as a reference point.
COc1cc2c(ccc3c4cc(OC)c(OC)cc4c[n+](C)c23)cc1O; 1.95 µM (inactive)
CC1NC(=O)C(C)C(c2ccccc2)N(N=O)C1c1ccccc1 (centres undefined); > 100 µM (inactive)
ClCc1ccc2ccc3ccc(CCl)nc3c2n1; 1.87 µM (inactive)

# next molecule below
I am curious: what GI50 value has been reported for C=C1C(=O)OC2CC1CCC1(C)OC1CCC(C)=CCCC2(C)O (centres undefined) ?
4.35 µM (inactive)

* * *

assayed system: FAD-linked sulfhydryl oxidase ALR (Homo sapiens, UniProt P55789)
Sequence (P55789 whole entry): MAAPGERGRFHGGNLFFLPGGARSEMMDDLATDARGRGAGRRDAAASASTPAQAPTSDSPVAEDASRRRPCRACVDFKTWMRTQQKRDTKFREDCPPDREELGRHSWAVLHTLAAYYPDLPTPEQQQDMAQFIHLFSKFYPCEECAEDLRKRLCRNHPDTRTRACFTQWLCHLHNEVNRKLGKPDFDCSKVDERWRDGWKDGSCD
test description: ALR-catalysed DTT oxidation blockers – biochemical, H2O2 detection, luminescence, cherry-pick, dose response (AID 493248)
The source made the active and inactive calls.
Your response should consist of one outcome taken from active, inactive

Look over these answered cases.
Cc1cccc(C(=O)Nc2nnc(-c3ccncc3)o2)c1; active
COc1ccccc1C(=O)N1CCN=C1SCc1cccnc1; active
COc1ccc(S(=O)(=O)N2CCN=C2SCc2cccnc2)cc1; active
O=C(O)CCc1ccc(-c2ccc(Cl)cc2)o1; active
Cc1ccc(Nc2ccc(C(=O)O)cc2N)cc1; active
CCN(CC)S(=O)(=O)c1cccc(-c2csc(C)n2)c1; active
O=C(NO)c1ccc(OC(F)F)cc1; active
O=C(CCNS(=O)(=O)c1ccccc1C(F)(F)F)N1CCN(c2ccccc2O)CC1; active
COc1ccc(-c2cc(-c3ccc(N)cc3)nc(N)c2C#N)cc1OC; active
O=C(O)c1ccc(Nc2nc3ccccc3nc2NS(=O)(=O)c2ccc(F)cc2)cc1; inactive

# next compound below
For "Cc1cccc(-c2cnn(-c3cccc([N+](=O)[O-])c3)c2N)c1" , what call appears in the results of this test?
active

* * *

Task for the reader: assign each of the following molecules its reported IC50.
assayed system: Trace amine-associated receptor 1 (Homo sapiens, UniProt Q96RJ0);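 further: inhibition of calcium response to PEA at EC80 in Galpha16 coupled cells measured by Fluo-8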
Sequence (Q96RJ0 whole entry): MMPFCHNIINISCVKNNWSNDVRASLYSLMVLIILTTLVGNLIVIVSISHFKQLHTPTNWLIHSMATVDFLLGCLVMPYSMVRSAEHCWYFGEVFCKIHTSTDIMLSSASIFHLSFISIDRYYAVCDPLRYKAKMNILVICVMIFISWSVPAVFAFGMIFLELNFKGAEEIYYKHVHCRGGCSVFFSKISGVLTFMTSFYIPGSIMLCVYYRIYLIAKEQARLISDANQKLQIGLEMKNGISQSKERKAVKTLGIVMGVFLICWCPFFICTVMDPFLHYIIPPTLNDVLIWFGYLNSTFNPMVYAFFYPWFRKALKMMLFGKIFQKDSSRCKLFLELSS
test description: Counterscreen for agonists of the human trace amine associated receptor 1 (hTAAR1): Fluorescence-based cell-based high throughput dose response assay to identify hTAAR1 agonist that also desensitize TAAR1 receptor response.
Format: functional
Active and inactive are the calls of the source.

Cc1cc(N(C)C)nc(Nc2ccccc2)n1; 0.273 µM (active)

Quick request: IC50 for each listed item, please.
1. CCOC(=O)C(NCCc1ccccc1)(NC(=O)CC)C(F)(F)F (centres undefined)
2. NS(=O)(=O)c1ccc(CCNC(=O)CNCCc2ccccc2)cc1
3. COc1cccc(C(=O)N[C@H](C(=O)N2CCC[C@H]2C(=O)NCCc2ccccc2Cl)C2CCCCC2)c1

8.43 µM (active)
3.56 µM (active)
6.66 µM (active)
